Tested on: 22Rv1 tumor-bearing mice
Experiment: Biodistribution in 22Rv1 tumor-bearing mice
Conditions: 60 min p.i., 0.74 MBq, n = 3
parameter: Uptake Kidney, Mean

- compound: "O=C([O-])CN1CCN(CC(=O)[O-])CCN(CC(=O)NCCCCC(=O)NC(Cc2cnc3ccccc3c2)C(=O)NCCCCC(NC(=O)NC(CCC(=O)O)C(=O)O)C(=O)O)CCN(CC(=O)O)CC1.[68Ga+3] (centres unmarked) [[^68Ga]Ga-PSMA-Q-1]"
  Uptake Kidney, Mean: "5.70 ID%/g"
- compound: "O=C([O-])CN(CCN(CC(=O)[O-])Cc1cc(CCC(=O)NCCCCCC(=O)NCCCC[C@H](NC(=O)N[C@@H](CCC(=O)O)C(=O)O)C(=O)O)ccc1[O-])Cc1cc(CCC(=O)O)ccc1[O-].[68Ga+3].[OH3+] [[^68Ga]Ga-PSMA-11, reference compound]"
  Uptake Kidney, Mean: "1.61 ID%/g"
- compound: "O=C([O-])CN1CCN(CC(=O)[O-])CCN(CC(=O)NCC2CCC(C(=O)NC(Cc3ccc4ccccc4c3)C(=O)NCCCCC(NC(=O)NC(CCC(=O)O)C(=O)O)C(=O)O)CC2)CCN(CC(=O)O)CC1.[68Ga+3] (centres unmarked) [[^68Ga]Ga-PSMA-617, reference compound]"
  Uptake Kidney, Mean: "29.78 ID%/g"
- compound: "O=C([O-])CN1CCN(CC(=O)[O-])CCN(CC(=O)NCc2ccc(C(=O)NC(Cc3cnc4ccccc4c3)C(=O)NCCCCC(NC(=O)NC(CCC(=O)O)C(=O)O)C(=O)O)cc2)CCN(CC(=O)O)CC1.[68Ga+3] (centres unmarked) [[^68Ga]Ga-PSMA-Q-3]"
  Uptake Kidney, Mean: "2.65 ID%/g"

With those in mind, consider the next compound.
Prompt line: Identify measured Uptake Kidney, Mean corresponding to O=C([O-])CN1CCN(CC(=O)[O-])CCN(CC(=O)NCCCCCC(=O)NC(Cc2cnc3ccccc3c2)C(=O)NCCCCC(NC(=O)NC(CCC(=O)O)C(=O)O)C(=O)O)CCN(CC(=O)O)CC1.[68Ga+3] (centres unmarked) [[^68Ga]Ga-PSMA-Q-2]
Response line: 26.62 ID%/g

---

Tested on: 22Rv1 tumor-bearing mice
Experiment: Biodistribution in 22Rv1 tumor-bearing mice
Details: 30 min p.i., 0.74 MBq, n = 3
In this section, each of the compounds is paired with its reported Uptake Kidney, Mean.
Give a bare numeral; the unit ID%/g is implied.

- compound: "O=C([O-])CN1CCN(CC(=O)[O-])CCN(CC(=O)NCCCCCC(=O)NC(Cc2cnc3ccccc3c2)C(=O)NCCCCC(NC(=O)NC(CCC(=O)O)C(=O)O)C(=O)O)CCN(CC(=O)O)CC1.[68Ga+3] (centres unmarked) [[^68Ga]Ga-PSMA-Q-2]"
  tested_on: "22Rv1 tumor-bearing mice"
  quantity_unit: "ID%/g"
  result_number: 20.74

Proceed to the following item.
Prompt line: Write down measured Uptake Kidney, Mean (22Rv1 tumor-bearing mice) for this compound. O=C([O-])CN1CCN(CC(=O)[O-])CCN(CC(=O)NCc2ccc(C(=O)NC(Cc3cnc4ccccc4c3)C(=O)NCCCCC(NC(=O)NC(CCC(=O)O)C(=O)O)C(=O)O)cc2)CCN(CC(=O)O)CC1.[68Ga+3] (centres unmarked) [[^68Ga]Ga-PSMA-Q-3]
Response line: 13.88
